These entries and their values trace back to paper PMC5054527.

Target: h-r TM10 URAT1 chimera (Homo sapiens, UniProt Q96S37, G444S/I452V/V445L/Y455F)
Experiment: URAT1 uric acid transport activity assay
Settings: HEPES pH 7.3, 100 μM 14C-uric acid
pIC50: −log10 of the molar value.

| COMPOUND | pIC50 |
| --- | --- |
| O=C1C(CC[S+]([O-])c2ccccc2)C(=O)N(c2ccccc2)N1c1ccccc1 (stereo not shown) [sulfinpyrazone] | 4.31 |

* * *

Molecular target: r-N35S/M481I rURAT1 double point mutant (Rattus norvegicus, UniProt Q3ZAV1, M481I/N35S)
Construct: hURAT1 and rURAT1 are 553 amino acid proteins with 12 transmembrane segments; expressed in transfected cells; host or cells: HEK-293T
Experiment: URAT1 uric acid transport activity assay
Type: cell-based

| SMILES_REPRESENTATION | IC50, µM |
| --- | --- |
| CCc1oc2ccccc2c1C(=O)c1cc(Br)c(O)c(Br)c1 | 9 |

* * *

As shown below, each of these compounds has a reported pIC50 value.
Target: r-N35S rURAT1 point mutant (Rattus norvegicus, UniProt Q3ZAV1, N35S)
Construct: expressed in transfected cells; host or cells: HEK-293T
Assay: URAT1 uric acid transport activity assay
Assay type: cell-based
Conditions: r-N35S; MES pH 5.5; 100 μM 14C-uric acid; read-out: IC50 (uric acid transport)
pIC50: −log10 of the molar value.

| COMPOUND | pIC50 |
| --- | --- |
| O=c1[nH]c(=O)c2[nH]c(=O)[nH]c2[nH]1 [uric acid] | 2.58 |
| O=C(O)CSc1nnc(Br)n1-c1ccc(C2CC2)c2ccccc12 [lesinurad] | 4.24 |

* * *

Molecular target: h-F365Y hURAT1 point mutant (Homo sapiens, UniProt Q96S37, F365Y)
Assay: URAT1 uric acid transport activity assay
Format: cell-based
Details: h-F365Y; MES pH 5.5; 100 μM 14C-uric acid
QUANTITY_MEASURED: IC50 (µM)

| SMILES_REPRESENTATION | MEAS_VALUE |
| --- | --- |
| O=c1[nH]c(=O)c2[nH]c(=O)[nH]c2[nH]1 | 609 |

* * *

Molecular target: h-M25V hURAT1 point mutant (Homo sapiens, UniProt Q96S37, M25V)
Sequence (Q96S37 1-553 M25V): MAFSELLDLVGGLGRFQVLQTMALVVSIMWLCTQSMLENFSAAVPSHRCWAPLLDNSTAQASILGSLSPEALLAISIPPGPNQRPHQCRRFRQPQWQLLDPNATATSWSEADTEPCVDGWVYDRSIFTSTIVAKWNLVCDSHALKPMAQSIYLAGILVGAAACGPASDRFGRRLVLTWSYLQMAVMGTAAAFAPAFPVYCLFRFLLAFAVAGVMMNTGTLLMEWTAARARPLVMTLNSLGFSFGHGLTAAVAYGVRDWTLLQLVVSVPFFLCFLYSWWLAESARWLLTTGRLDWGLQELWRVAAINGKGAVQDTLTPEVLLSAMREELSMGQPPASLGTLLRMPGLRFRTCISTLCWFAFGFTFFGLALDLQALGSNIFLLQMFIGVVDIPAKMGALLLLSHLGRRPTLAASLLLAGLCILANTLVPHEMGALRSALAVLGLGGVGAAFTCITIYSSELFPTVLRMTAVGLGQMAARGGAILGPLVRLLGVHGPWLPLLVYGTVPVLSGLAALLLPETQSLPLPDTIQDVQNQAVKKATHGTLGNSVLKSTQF
Assay: URAT1 uric acid transport activity assay
Details: h-M25V; HEPES pH 7.3; 100 μM 14C-uric acid

| COMPOUND | IC50 |
| --- | --- |
| O=C1C(CC[S+]([O-])c2ccccc2)C(=O)N(c2ccccc2)N1c1ccccc1 (stereo not shown) | 53 µM |

* * *

Molecular target: r-h TM1-N URAT1 chimera (Rattus norvegicus, UniProt Q3ZAV1, A21T/L18V/T26V/V22M/V25M)
Sequence (Q3ZAV1 1-553 L18V/A21T/V22M/V25M/T26V): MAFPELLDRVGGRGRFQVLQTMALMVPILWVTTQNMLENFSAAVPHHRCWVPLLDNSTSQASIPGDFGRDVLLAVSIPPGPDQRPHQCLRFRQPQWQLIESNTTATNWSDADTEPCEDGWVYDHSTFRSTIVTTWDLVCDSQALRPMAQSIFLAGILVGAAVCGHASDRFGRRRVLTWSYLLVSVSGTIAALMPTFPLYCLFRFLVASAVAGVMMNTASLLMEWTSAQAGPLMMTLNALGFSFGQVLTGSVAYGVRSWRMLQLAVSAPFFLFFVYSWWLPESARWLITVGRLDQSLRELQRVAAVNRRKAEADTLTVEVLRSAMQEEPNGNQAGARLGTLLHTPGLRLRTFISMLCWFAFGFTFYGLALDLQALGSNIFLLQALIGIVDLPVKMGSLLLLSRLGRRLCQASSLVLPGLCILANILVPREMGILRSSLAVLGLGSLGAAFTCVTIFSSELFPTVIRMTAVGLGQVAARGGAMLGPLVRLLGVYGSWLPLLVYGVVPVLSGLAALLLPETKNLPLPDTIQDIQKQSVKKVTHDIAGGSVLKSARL
Assay: URAT1 uric acid transport activity assay
Type: cell-based, human/rat

| MOLECULE | UNIT_INFO | IC50 |
| --- | --- | --- |
| CCc1oc2ccccc2c1C(=O)c1cc(Br)c(O)c(Br)c1 [benzbromarone] | µM | 16 |

* * *

Target: h-r TM1 chimera (rURAT1 residues 1–99 and hURAT residues 100–553) (UniProt Q3ZAV1+Q96S37)
Construct: a chimera consisting of rURAT1 residues 1–99 and hURAT residues 100–553 (h-r TM1); expressed in transfected cells; host or cells: HEK-293T
Assay: URAT1 uric acid transport activity assay
Format: cell-based, human/rat
Details: h-r TM1; HEPES pH 7.3; 100 μM 14C-uric acid

| COMPOUND | IC50 / µM |
| --- | --- |
| O=C1C(CC[S+]([O-])c2ccccc2)C(=O)N(c2ccccc2)N1c1ccccc1 (stereo not shown) [sulfinpyrazone] | 93 |

* * *

Target: h-S35N hURAT1 point mutant (Homo sapiens, UniProt Q96S37, S35N)
Assay: URAT1 uric acid transport activity assay
Assay type: cell-based
Details: h-S35N; HEPES pH 7.3; 100 μM 14C-uric acid
QUANTITY_MEASURED: IC50

| COMPOUND | TESTED_ON | QUANTITY_MEASURED | MEAS_VALUE |
| --- | --- | --- | --- |
| O=C1C(CC[S+]([O-])c2ccccc2)C(=O)N(c2ccccc2)N1c1ccccc1 (stereo not shown) [sulfinpyrazone] | h-S35N hURAT1 point mutant (Homo sapiens, UniProt Q96S37, S35N) | IC50 | 233 µM |

* * *

Molecular target: r-V31L rURAT1 point mutant (Rattus norvegicus, UniProt Q3ZAV1, V31L)
Construct: expressed in transfected cells; host or cells: HEK-293T
Experiment: URAT1 uric acid transport activity assay
Type: cell-based
Conditions: r-V31L; HEPES pH 7.3; 100 μM 14C-uric acid; read-out: IC50 (uric acid transport)
QUANTITY_MEASURED: IC50 (µM)

| MOLECULE | TESTED_ON | UNIT_INFO | MEAS_VALUE |
| --- | --- | --- | --- |
| O=C1C(CC[S+]([O-])c2ccccc2)C(=O)N(c2ccccc2)N1c1ccccc1 (stereo not shown) | r-V31L rURAT1 point mutant (Rattus norvegicus, UniProt Q3ZAV1, V31L) | µM | 266 |

* * *

Biological target: r-h TM7 URAT1 chimera (Rattus norvegicus, UniProt Q3ZAV1, F351C/M354T/Y365F)
Construct: expressed in transfected cells; host or cells: HEK-293T
Assay: URAT1 uric acid transport activity assay
Format: cell-based, human/rat
Conditions: r-h TM7; MES pH 5.5; 100 μM 14C-uric acid; read-out: IC50 (uric acid transport)
pIC50: −log10 of the molar value.

| COMPOUND | TESTED_ON | pIC50 |
| --- | --- | --- |
| O=C(O)CSc1nnc(Br)n1-c1ccc(C2CC2)c2ccccc12 [lesinurad] | r-h TM7 URAT1 chimera (Rattus norvegicus, UniProt Q3ZAV1, F351C/M354T/Y365F) | 5.16 |

* * *

Molecular target: r-V31L rURAT1 point mutant (Rattus norvegicus, UniProt Q3ZAV1, V31L)
Construct: expressed in transfected cells; host or cells: HEK-293T
Assay: URAT1 uric acid transport activity assay
Assay type: cell-based
Conditions: r-V31L; MES pH 5.5; 100 μM 14C-uric acid; read-out: IC50 (uric acid transport)

| COMPOUND | TESTED_ON | UNIT_INFO | IC50 |
| --- | --- | --- | --- |
| O=C(O)CSc1nnc(Br)n1-c1ccc(C2CC2)c2ccccc12 [lesinurad] | r-V31L rURAT1 point mutant (Rattus norvegicus, UniProt Q3ZAV1, V31L) | µM | 85 |
